test target: Mitogen-activated protein kinase kinase kinase kinase 2 (Homo sapiens)
Sequence (whole entry): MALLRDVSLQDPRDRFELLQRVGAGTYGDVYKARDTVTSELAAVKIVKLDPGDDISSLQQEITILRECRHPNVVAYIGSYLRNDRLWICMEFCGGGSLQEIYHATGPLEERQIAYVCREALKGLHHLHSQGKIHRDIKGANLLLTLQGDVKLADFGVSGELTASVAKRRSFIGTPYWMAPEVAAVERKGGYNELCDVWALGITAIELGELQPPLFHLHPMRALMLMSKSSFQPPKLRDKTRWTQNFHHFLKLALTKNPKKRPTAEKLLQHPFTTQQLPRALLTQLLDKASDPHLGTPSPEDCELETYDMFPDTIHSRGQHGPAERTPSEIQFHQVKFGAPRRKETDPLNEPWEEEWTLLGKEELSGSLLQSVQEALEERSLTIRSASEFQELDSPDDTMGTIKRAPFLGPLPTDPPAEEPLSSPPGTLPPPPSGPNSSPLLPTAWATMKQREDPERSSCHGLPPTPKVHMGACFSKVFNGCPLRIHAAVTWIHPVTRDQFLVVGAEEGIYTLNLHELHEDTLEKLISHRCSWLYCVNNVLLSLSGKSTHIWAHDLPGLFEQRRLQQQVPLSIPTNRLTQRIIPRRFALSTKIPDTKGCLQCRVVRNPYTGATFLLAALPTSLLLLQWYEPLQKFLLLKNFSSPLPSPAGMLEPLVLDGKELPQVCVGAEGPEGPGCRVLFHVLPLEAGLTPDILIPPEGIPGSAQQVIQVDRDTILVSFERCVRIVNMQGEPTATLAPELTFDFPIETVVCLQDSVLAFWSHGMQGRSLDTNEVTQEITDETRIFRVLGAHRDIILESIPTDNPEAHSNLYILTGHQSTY
protocol details: Inhibition of MAP4K2 Lys1 labeling site in human A-375 cells at 0.5 uM by KiNativ Profiling analysis relative to control
Assay type: cell-based
Recorded inhibition for the following compounds
measured metric: inhibition

In [3]: df
Out[3]:
                            chemical_smiles   result
0  CCN1CCN(Cc2ccc(NC(=O)c3ccc(C)c(Oc4ncnc5[nH]ccc45)c3)cc2C(F)(F)F)CC1    > 86%
1  CCN1CCN(Cc2ccc(NC(=O)c3ccc(C)c(Oc4ncnc5[nH]c(C)cc45)c3)cc2C(F)(F)F)CC1    > 94%
2  CCN1CCN(Cc2ccc(NC(=O)c3cccc(Oc4ccnc5[nH]ccc45)c3)cc2C(F)(F)F)CC1    > 80%
3  CCN1CCN(Cc2ccc(NC(=O)c3ccc(C)c(Oc4ccnc5[nH]ccc45)c3)cc2C(F)(F)F)CC1  > 99.5%
4  CCN1CCN(Cc2ccc(NC(=O)c3ccc(C)c(Oc4ccnc(NC)n4)c3)cc2C(F)(F)F)CC1    > 85%
